The reported numbers originate from patent US6525059B1.

- tested_on: human p38 kinase alpha (Homo sapiens)
- Construct: The coding region of the human p38a cDNA was obtained by PCR-amplification from RNA isolated from the human monocyte cell line THP.1; GST (N); made in house; host or cells: E. coli DH10B
- assay_procedure: p38 kinase in vitro assay, phosphorylation of biotinylated PHAS-I with gamma 32P-ATP
- Format: biochemical
- condition: read-out: P38 alpha kinase IC50
pIC50: −log10 of the molar value.
Entries and their measured pIC50 follow.
assay_endpoint: pIC50

CN1CCC[C@@H](c2[nH]nc(-c3ccc(F)cc3)c2-c2ccncc2)C1
7.05
O=C(NCc1[nH]nc(-c2ccc(F)cc2)c1-c1ccncc1)c1ccc(F)c(C(F)(F)F)c1
5.40
O=S(=O)(NCc1[nH]nc(-c2ccc(F)cc2)c1-c1ccncc1)c1cccc2cnccc12
6.04
C[C@@H](NC(=O)C1CC1)c1[nH]nc(-c2ccc(F)cc2)c1-c1ccncc1
6.48
C[C@@H](NC(=O)c1cccc(Cl)c1Cl)c1[nH]nc(-c2ccc(F)cc2)c1-c1ccncc1
6.40
COc1ccc(CC(=O)N[C@H](C)c2[nH]nc(-c3ccc(F)cc3)c2-c2ccncc2)cc1OC
6.31
O=C(NCc1[nH]nc(-c2ccc(F)cc2)c1-c1ccncc1)c1cc(Cl)cc(Cl)c1
5.30
NC(=O)NCc1[nH]nc(-c2ccc(F)cc2)c1-c1ccncc1
6.80
CCCNC(=O)N[C@H](C)c1[nH]nc(-c2ccc(F)cc2)c1-c1ccncc1
6.74
C[C@@H](NS(=O)(=O)c1ccccc1C(F)(F)F)c1[nH]nc(-c2ccc(F)cc2)c1-c1ccncc1
7.48
Fc1ccc(-c2n[nH]c([C@H]3CCCN3)c2-c2ccncc2)cc1
5.14
C[C@@H](NS(C)(=O)=O)c1[nH]nc(-c2ccc(F)cc2)c1-c1ccncc1
7.01
O=S(=O)(NCc1[nH]nc(-c2ccc(F)cc2)c1-c1ccncc1)c1ccc(F)cc1Cl
7.26
C[C@@H](NC(=O)C1CCCC1)c1[nH]nc(-c2ccc(F)cc2)c1-c1ccncc1
5.52
CC(=O)OC(C)(C)C(=O)N[C@H](C)c1[nH]nc(-c2ccc(F)cc2)c1-c1ccncc1
6.43
Cc1c(Cl)cccc1S(=O)(=O)N[C@H](C)c1[nH]nc(-c2ccc(F)cc2)c1-c1ccncc1
6.72
C[C@@H](NS(=O)(=O)c1cccc2ccccc12)c1[nH]nc(-c2ccc(F)cc2)c1-c1ccncc1
6.10

====

Below, each of the molecules is paired with its reported pIC50 value.
- tested_on: human p38 kinase alpha (Homo sapiens, UniProt Q16539)
- Construct: The coding region of the human p38a cDNA was obtained by PCR-amplification from RNA isolated from the human monocyte cell line THP.1; GST (N); made in house; host or cells: E. coli DH10B
- Sequence (Q16539 whole entry): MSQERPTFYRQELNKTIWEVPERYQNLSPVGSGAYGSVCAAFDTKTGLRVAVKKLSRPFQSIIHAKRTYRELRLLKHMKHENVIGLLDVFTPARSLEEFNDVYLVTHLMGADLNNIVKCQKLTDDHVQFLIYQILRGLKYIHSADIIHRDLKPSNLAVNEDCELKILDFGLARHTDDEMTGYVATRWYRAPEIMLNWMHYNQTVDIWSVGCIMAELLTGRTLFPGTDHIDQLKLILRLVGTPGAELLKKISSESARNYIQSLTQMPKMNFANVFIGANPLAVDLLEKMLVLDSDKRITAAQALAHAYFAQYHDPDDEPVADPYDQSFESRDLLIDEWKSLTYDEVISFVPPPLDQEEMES
- assay_procedure: p38 kinase in vitro assay, phosphorylation of biotinylated PHAS-I with gamma 32P-ATP
- Type: biochemical
- condition: read-out: P38 alpha kinase IC50
pIC50: −log10 of the molar value.
assay_endpoint: pIC50

O=C(NCc1[nH]nc(-c2ccc(F)cc2)c1-c1ccncc1)c1cccc(Cl)c1
6.11
C[C@@H](NS(=O)(=O)c1cccc2c(N(C)C)cccc12)c1[nH]nc(-c2ccc(F)cc2)c1-c1ccncc1
6.00
O=S(=O)(NCc1[nH]nc(-c2ccc(F)cc2)c1-c1ccncc1)c1cc(Cl)cc(Cl)c1
7.00
Cc1cc(C)c(C(=O)NCc2[nH]nc(-c3ccc(F)cc3)c2-c2ccncc2)c(C)c1
6.07
C[C@@H](NC(=O)N1CCOCC1)c1[nH]nc(-c2ccc(F)cc2)c1-c1ccncc1
6.10
C[C@@H](NC(=O)c1cccc(Cl)c1)c1[nH]nc(-c2ccc(F)cc2)c1-c1ccncc1
6.80

====

Collected pIC50 values appear next to each entry.
- tested_on: human GST-p38 kinase alpha (Homo sapiens, UniProt Q16539)
- Construct: The coding region of the human p38a cDNA was obtained by PCR-amplification from RNA isolated from the human monocyte cell line THP.1; made in house; host or cells: E. coli DH10B
- assay_procedure: p38 kinase in vitro assay, second format, phosphorylation of EGFRP with 33P-ATP
- Format: biochemical
- condition: Table 10, 10% DMSO; @ 1.0 hour; read-out: p38α Kinase Assay IC50
pIC50: −log10 of the molar value.
assay_endpoint: pIC50

COc1ccc(COc2[nH]nc(-c3ccc(Cl)cc3)c2-c2ccncc2)cc1
5.16
CN1CCN(c2[nH]nc(-c3cccc(Br)c3)c2-c2ccncc2)CC1
6.68
CC(C#N)Sc1[nH]nc(-c2ccc(Cl)cc2)c1-c1ccncc1 (stereo not drawn)
6.47
C=Cc1ccc(C(=O)C(=C2SCS2)c2ccncc2)cc1
5.31
Cc1cc(-c2[nH]nc(N3CCN(C)CC3)c2-c2ccncc2)ccc1Br
6.49
COc1ccc(-c2[nH]nc(N3CCN(C)CC3)c2-c2ccncc2)cc1Cl
6.04
O=C(O)C(Cc1cnc[nH]1)Sc1[nH]nc(-c2ccc(Cl)cc2)c1-c1ccncc1 (stereo not drawn)
5.31
Clc1ccc(-c2n[nH]c(SCc3nc4ccccc4[nH]3)c2-c2ccncc2)cc1
4.98
Cc1ccccc1-c1n[nH]c(N2CCN(C)CC2)c1-c1ccncc1
5.25
Cc1ccccc1C(=O)C(=C1SCS1)c1ccncc1
4.53
CS(=O)(=O)c1[nH]nc(-c2ccc(F)cc2)c1-c1ccncc1
5.11
CC(C)(C)OC(=O)NCCOc1[nH]nc(-c2ccc(Cl)cc2)c1-c1ccncc1
5.97
O=C(CSc1[nH]nc(-c2ccc(Cl)cc2)c1-c1ccncc1)N1CCOCC1
6.00
Nc1[nH]nc(-c2ccc(Cl)cc2)c1-c1ccncc1
6.72
COC(=O)CSc1[nH]nc(-c2ccc(Cl)cc2)c1-c1ccncc1
6.40
CN1CCN(c2[nH]nc(-c3ccc(C(C)(C)C)cc3)c2-c2ccncc2)CC1
5.02

====

Entries and their measured inhibition at 1 µM follow.
- tested_on: human p38 kinase alpha (Homo sapiens, UniProt Q16539)
- Construct: The coding region of the human p38a cDNA was obtained by PCR-amplification from RNA isolated from the human monocyte cell line THP.1; GST (N); made in house; host or cells: E. coli DH10B
- assay_procedure: p38 kinase in vitro assay, phosphorylation of biotinylated PHAS-I with gamma 32P-ATP
- Assay type: biochemical
- condition: @ 1.0 uM; read-out: P38 alpha kinase % inhib @ conc.
assay_endpoint: inhibition at 1 µM (%)

O=C(NCc1[nH]nc(-c2ccc(F)cc2)c1-c1ccncc1)c1ccno1
90
O=C(NCc1[nH]nc(-c2ccc(F)cc2)c1-c1ccncc1)c1cccc(Br)c1
91
COc1cccc(OC)c1C(=O)NCc1[nH]nc(-c2ccc(F)cc2)c1-c1ccncc1
92
CSCCC(=O)NCc1[nH]nc(-c2ccc(F)cc2)c1-c1ccncc1
92

====

IC50 overview
- tested_on: human p38 kinase alpha (Homo sapiens, UniProt Q16539)
- Construct: The coding region of the human p38a cDNA was obtained by PCR-amplification from RNA isolated from the human monocyte cell line THP.1; GST (N); made in house; host or cells: E. coli DH10B
- assay_procedure: p38 kinase in vitro assay, phosphorylation of biotinylated PHAS-I with gamma 32P-ATP
- Assay type: biochemical
- condition: read-out: P38 alpha kinase IC50
assay_endpoint: IC50 (nM)

CC(=O)N1CCC(c2[nH]nc(-c3ccc(Cl)cc3)c2-c2ccncc2)CC1
70
COc1ccc(OC)c(S(=O)(=O)N[C@H](C)c2[nH]nc(-c3ccc(F)cc3)c2-c2ccncc2)c1
89
Clc1ccc(-c2n[nH]c(C3CCN(Cc4nccs4)CC3)c2-c2ccncc2)cc1
150
CS(=O)(=O)N1CCC(c2[nH]nc(-c3ccc(Cl)cc3)c2-c2ccncc2)CC1
68

====

- Test system: TNF a
- assay_procedure: LPS stimulation of human PBMs, TNF a by ELISA
- Format: cell-based
- condition: LPS-stimulated human PBMs, TNF cell assay; read-out: Human PBM Assay IC50
assay_endpoint: IC50 (nM)

CN(C)c1n[nH]c(-c2ccc(F)cc2)c1-c1ccncc1 [Example A-19]
300
COc1ccc(-c2[nH]nc(C)c2-c2ccncc2)cc1F [Example A-1]
500
Cc1n[nH]c(-c2ccc(-c3ccccc3)cc2)c1-c1ccncc1 [Example A-12]
8500

====

- tested_on: human GST-p38 kinase alpha (Homo sapiens)
- Construct: The coding region of the human p38a cDNA was obtained by PCR-amplification from RNA isolated from the human monocyte cell line THP.1; made in house; host or cells: E. coli DH10B
- assay_procedure: p38 kinase in vitro assay, second format, phosphorylation of EGFRP with 33P-ATP
- Format: biochemical
- condition: p38α in vitro, EGFRP assay procedure; read-out: p38^2 IC50
pIC50: −log10 of the molar value.
assay_endpoint: pIC50

CC[C@H](C)CNc1cc(-c2c[nH]nc2-c2ccc(Cl)cc2)ccn1 [Example A-245]
> 9.00
CC(Nc1cc(-c2c[nH]nc2-c2ccc(F)cc2)ccn1)c1ccc(F)cc1 (stereo not drawn) [Example A-253]
> 9.00
Cn1cc(-c2ccnc(CCc3ccc(F)cc3)c2)c(-c2ccc(F)cc2)n1 [Example A-262]
> 7.00
